FYI, the data here is from patent US5461049A.

system name: UniProt Q7TQM4
Sequence (Q7TQM4 1-524): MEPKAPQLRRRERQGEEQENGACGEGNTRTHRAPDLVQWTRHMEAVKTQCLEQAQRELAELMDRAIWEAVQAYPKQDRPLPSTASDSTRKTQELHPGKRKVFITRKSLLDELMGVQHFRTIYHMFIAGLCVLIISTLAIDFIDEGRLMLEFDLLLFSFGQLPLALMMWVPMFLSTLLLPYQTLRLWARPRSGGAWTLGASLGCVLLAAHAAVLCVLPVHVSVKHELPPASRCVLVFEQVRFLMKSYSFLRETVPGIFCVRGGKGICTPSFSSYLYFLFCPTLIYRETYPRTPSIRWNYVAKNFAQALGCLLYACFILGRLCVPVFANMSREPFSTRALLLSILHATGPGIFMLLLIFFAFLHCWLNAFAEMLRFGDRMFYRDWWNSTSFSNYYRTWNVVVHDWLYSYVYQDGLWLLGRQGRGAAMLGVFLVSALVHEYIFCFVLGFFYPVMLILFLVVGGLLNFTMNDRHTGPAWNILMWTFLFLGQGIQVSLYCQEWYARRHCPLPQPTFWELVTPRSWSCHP
pIC50: −log10 of the molar value.
We begin with a simple list: items and their reported pIC50.
assay readout: pIC50

INSERT INTO results (compound, reading) VALUES
  ('CCCCCCCCCCCCn1nnc(C(=NN(C)C)C(=O)Nc2c(C(C)C)cccc2C(C)C)n1', 7.37),
  ('CCCCCCCCCCCCn1nnc(C(C(=O)Nc2c(OC)cc(OC)cc2OC)N2CCCC2)n1 (racemic)', 7.40),
  ('CCCCCCCCCCCCn1nnc(/C(=N/OCC)C(=O)Nc2c(C(C)C)cccc2C(C)C)n1', 8.70),
  ('CCCCCCCCCCCCn1nnc(C(C(=O)Nc2c(C(C)C)cccc2C(C)C)N(CCO)CCO)n1 (racemic)', 6.41),
  ('CCCCCCCCCCCCn1nnc(C(C(=O)Nc2c(C(C)C)cccc2C(C)C)N(C)C)n1 (racemic)', 7.40),
  ('CCCCCCCCCCCCn1nnc(C(=NO)C(=O)Nc2c(C(C)C)cccc2C(C)C)n1', 7.54),
  ('CCCCCCCCCCCCn1nnc(C(C(=O)Nc2c(C(C)C)cccc2C(C)C)N2CCCCC2)n1 (racemic)', 7.82),
  ('CCCCCCCCCCCCn1nnc(C(C(=O)Nc2c(C(C)C)cccc2C(C)C)N2CCN(C)CC2)n1 (racemic)', 7.07),
  ('CCCCCCCCCCCCn1nnc(/C(=N\OC)C(=O)Nc2c(C(C)C)cccc2C(C)C)n1', 8.70),
  ('CCCCCCCCCCCCn1nnc(/C(=N/OC)C(=O)Nc2c(C(C)C)cccc2C(C)C)n1', 7.40),
  ('CCCCCCCCCCCCn1nnc(C(C(=O)Nc2c(C(C)C)cccc2C(C)C)N2CCOCC2)n1 (racemic)', 7.74);
